assay: Rat in vivo pharmacokinetics study after oral administration of product A, B or C; set-up: species or system Male Sprague-Dawley (SD) rats; settings: male, Sprague-Dawley, rat, plasma, po, 10 mL·kg^−1, rats, single oral dose 10 mL·kg^−1 of product A (FLJ extract and water 1:1), mean±SD
Reported Endpoint: Cmax (ng/mL)

{"Compound": "O=c1c(O[C@@H]2O[C@H](CO)[C@@H](O)[C@H](O)[C@H]2O)c(-c2ccc(O)c(O)c2)oc2cc(O)cc(O)c12 [Isoquercitrin]", "Display Unit": "ng/mL", "Cmax": 0.504}
{"Compound": "O=c1c(O)c(-c2ccc(O)c(O)c2)oc2cc(O)cc(O)c12 [Quercetin]", "Display Unit": "ng/mL", "Cmax": 15.6}
{"Compound": "O=C(O)/C=C/c1ccc(O)c(O)c1 [Caffeic acid]", "Display Unit": "ng/mL", "Cmax": 181}
{"Compound": "O=C(/C=C/c1ccc(O)c(O)c1)O[C@@H]1C[C@](O)(C(=O)O)C[C@@H](O)[C@H]1O [Chlorogenic acid]", "Display Unit": "ng/mL", "Cmax": 367}

1 = O=c1cc(-c2ccc(O)c(O)c2)oc2cc(O[C@@H]3O[C@H](CO)[C@@H](O)[C@H](O)[C@H]3O)cc(O)c12 [Luteoloside]
2 = COC(=O)C1=CO[C@@H](O[C@@H]2O[C@H](CO)[C@@H](O)[C@H](O)[C@H]2O)[C@@H]2[C@@H](C)[C@@H](O)C[C@H]12 [Loganin]
Problem: Given the entries 1 and 2 , determine which has the lower reported Cmax. Reply with the label of the item you choose. 1
(1: 1.26 ng/mL, 2: 28 ng/mL)

1 = O=C(/C=C/c1ccc(O)c(O)c1)O[C@@H]1C[C@](O)(C(=O)O)C[C@@H](OC(=O)/C=C/c2ccc(O)c(O)c2)[C@H]1O [3,5-dicaffeoylquinic acid]
2 = O=C(/C=C/c1ccc(O)c(O)c1)O[C@@H]1C[C@@](O)(C(=O)O)C[C@@H](O)[C@@H]1O [Neochlorogenic acid]
3 = O=c1c(-c2ccc(O)cc2)coc2cc(O[C@@H]3O[C@H](CO)[C@@H](O)[C@H](O)[C@H]3O)cc(O)c12 [Genistin]
4 = O=c1c(-c2ccc(O)cc2)coc2cc(O)cc(O)c12 [Genistein]
5 = O=C(/C=C/c1ccc(O)c(O)c1)O[C@H]1[C@H](O)C[C@](O)(C(=O)O)C[C@H]1O [Cryptochlorogenic acid]
With regard to Cmax, arrange the entries in ascending order, please. Answer by listing the labels in the order asked for. 3, 4, 1, 2, 5

P = O=C(C=Cc1ccc(O)c(O)c1)OC1CC(O)(C(=O)O)CC(O)C1OC(=O)C=Cc1ccc(O)c(O)c1 (stereo not shown) [3,4-dicaffeoylquinic acid]
Q = O=c1c(O[C@@H]2O[C@H](CO)[C@@H](O)[C@H](O)[C@H]2O)c(-c2ccc(O)cc2)oc2cc(O)cc(O)c12 [Astragalin]
R = O=c1cc(-c2ccc(O)c(O)c2)oc2cc(O)cc(O)c12 [Luteolin]
Please put the entries in order of rising Cmax. I'd appreciate it if you listed the labels in the requested order. Q, P, R

###

assay: Rat in vivo pharmacokinetics study after oral administration of product A, B or C; set-up: species or system Male Sprague-Dawley (SD) rats; conditions: male, Sprague-Dawley, rat, plasma, po, 10 mL·kg^−1, rats, oral product B, 10 mL·kg^−1
Reported Endpoint: AUC(0-inf) (ng·h/mL)
Give the number; ng·h/mL is assumed, so skip it.

{"Compound": "COc1cc(C2OCC3C(c4ccc(O[C@@H]5O[C@H](CO)[C@@H](O)[C@H](O)[C@H]5O)c(OC)c4)OCC23)ccc1O (stereo partly drawn) [Pinoresinol-β-D-glucoside]", "Display Unit": "ng·h/mL", "AUC(0-inf)": 32}

Which value of AUC(0-inf) has been reported for C[C@@H]1O[C@@H](OC[C@H]2O[C@@H](Oc3c(-c4ccc(O)c(O)c4)oc4cc(O)cc(O)c4c3=O)[C@H](O)[C@@H](O)[C@@H]2O)[C@H](O)[C@H](O)[C@H]1O [Rutin] in the records? 30.5

Field entry: O=c1c(O[C@@H]2O[C@H](CO)[C@H](O)[C@H](O)[C@H]2O)c(-c2ccc(O)c(O)c2)oc2cc(O)cc(O)c12 [Hyperoside] 10.4

The values you see were collected from paper PMC4183595.
